Readings of pIC50 for the listed compounds
target: murine MEKK2 (mMEKK2) (Mus musculus); test: TR-FRET kinase assay (mMEKK2/MBP); type: biochemical; details: substrate biotin MBP, 60 minutes at room temperature
pIC50: −log10 of the molar value.

Use these answered entries as a reference point.
compound: COc1cccc(-c2nc(SCc3cccc(NC(=O)c4cc(C(C)(C)C)nn4C)c3)[nH]c(=O)c2C#N)c1 [Example 2q]
pIC50: > 5.30
//
compound: N#Cc1c(-c2cccc(C(=O)O)c2)nc(SCCCn2cnc3c(NCc4ccccc4)ncnc32)[nH]c1=O [Example 4j]
pIC50: < 4.40

For the compound shown here, COc1cccc(-c2nc(SCc3cccc(NC(=O)c4ccc(OC)cc4OC)c3)[nH]c(=O)c2C#N)c1 [Example 2u] , give the reported pIC50.
> 4.70

For the compound shown here, COc1cccc(-c2nc(SCc3cccc(NCc4c(C(F)(F)F)nn(C)c4Cl)c3)[nH]c(=O)c2C#N)c1 [Example 1s] , give the reported pIC50.
> 5.00

For the compound shown here, COc1cccc(-c2nc(SCc3cccc(NC(=O)NCc4cc(OC)c(OC)c(OC)c4)c3)[nH]c(=O)c2C#N)c1 [Example 3i] , give the reported pIC50.
> 4.40

For the compound shown here, COc1cccc(-c2nc(SCc3ccc(NC(=O)NC4CCCCC4)cc3)[nH]c(=O)c2C#N)c1 [Example 3y] , give the reported pIC50.
> 6.00

For the compound shown here, N#Cc1c(-c2cccc(O)c2)nc(SCc2cccc(NC(=O)c3ccc(Cl)c(Cl)c3)c2)[nH]c1=O [Example 4l] , give the reported pIC50.
> 5.30

----------
Readings of pIC50 for the listed molecules
molecular target: murine MEKK2 (mMEKK2) (Mus musculus, UniProt Q61083); test: TR-FRET kinase assay (mMEKK2/MBP); assay type: biochemical; conditions: substrate biotin MBP, 60 minutes at room temperature
Sequence (Q61083 whole entry): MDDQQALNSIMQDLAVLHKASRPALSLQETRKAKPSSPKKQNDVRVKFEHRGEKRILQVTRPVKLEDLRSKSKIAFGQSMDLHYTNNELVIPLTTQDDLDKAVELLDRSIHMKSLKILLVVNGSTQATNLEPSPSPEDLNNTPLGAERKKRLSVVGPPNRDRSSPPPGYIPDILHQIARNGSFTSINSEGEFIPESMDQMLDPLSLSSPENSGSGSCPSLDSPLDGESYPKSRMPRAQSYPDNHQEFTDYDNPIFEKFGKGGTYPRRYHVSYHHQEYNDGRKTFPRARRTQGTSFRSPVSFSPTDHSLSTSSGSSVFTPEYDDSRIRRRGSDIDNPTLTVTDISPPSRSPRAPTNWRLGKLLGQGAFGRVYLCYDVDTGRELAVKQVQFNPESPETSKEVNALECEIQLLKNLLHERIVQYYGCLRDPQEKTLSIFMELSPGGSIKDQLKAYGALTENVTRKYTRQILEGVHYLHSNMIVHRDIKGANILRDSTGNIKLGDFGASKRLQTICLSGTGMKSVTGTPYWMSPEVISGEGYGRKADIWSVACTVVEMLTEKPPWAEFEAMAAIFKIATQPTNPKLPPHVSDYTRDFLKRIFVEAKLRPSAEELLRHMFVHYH
pIC50: −log10 of the molar value.

compound structure string: COc1cccc(-c2nc(SCc3cccc(NC(=O)c4ccc5ccccc5c4)c3)[nH]c(=O)c2C#N)c1
target or test system: murine MEKK2 (mMEKK2) (Mus musculus, UniProt Q61083)
endpoint: pIC50
result: > 5.30

compound structure string: N#Cc1c(-c2cccc(NCC[C@@H](O)[C@@H](O)CO)c2)nc(SCc2cccc(NC(=O)c3ccc(Cl)c(Cl)c3)c2)[nH]c1=O
target or test system: murine MEKK2 (mMEKK2) (Mus musculus, UniProt Q61083)
endpoint: pIC50
result: > 5.30

compound structure string: N#Cc1c(-c2cccc(Cn3ccnc3)c2)nc(SCc2cccc(NC(=O)c3ccc(Cl)c(Cl)c3)c2)[nH]c1=O
target or test system: murine MEKK2 (mMEKK2) (Mus musculus, UniProt Q61083)
endpoint: pIC50
result: < 4.40

compound structure string: COc1cccc(-c2nc(SCc3cccc(NC(=O)c4cc(C)on4)c3)[nH]c(=O)c2C#N)c1
target or test system: murine MEKK2 (mMEKK2) (Mus musculus, UniProt Q61083)
endpoint: pIC50
result: > 4.70

compound structure string: N#Cc1c(-c2ccc(OC(F)(F)F)cc2)nc(SCc2cccc(NC(=O)c3ccc(Cl)c(Cl)c3)c2)[nH]c1=O
target or test system: murine MEKK2 (mMEKK2) (Mus musculus, UniProt Q61083)
endpoint: pIC50
result: > 4.40

Give murine MEKK2 (mMEKK2) (Mus musculus, UniProt Q61083) pIC50 for "COc1cccc(-c2nc(SCc3ccc(NC(=O)c4cc(C)nn4C(C)(C)C)cc3)[nH]c(=O)c2C#N)c1"
> 4.70

Give murine MEKK2 (mMEKK2) (Mus musculus, UniProt Q61083) pIC50 for "COc1cccc(-c2nc(SCc3cccc(NC(=O)NCc4ccccc4)c3)[nH]c(=O)c2C#N)c1"
> 5.30
